Data credit: the supplement of paper PMC10065799

# experimental-system: Fes (UniProt P07332)
# Sequence (P07332 whole entry, looked up): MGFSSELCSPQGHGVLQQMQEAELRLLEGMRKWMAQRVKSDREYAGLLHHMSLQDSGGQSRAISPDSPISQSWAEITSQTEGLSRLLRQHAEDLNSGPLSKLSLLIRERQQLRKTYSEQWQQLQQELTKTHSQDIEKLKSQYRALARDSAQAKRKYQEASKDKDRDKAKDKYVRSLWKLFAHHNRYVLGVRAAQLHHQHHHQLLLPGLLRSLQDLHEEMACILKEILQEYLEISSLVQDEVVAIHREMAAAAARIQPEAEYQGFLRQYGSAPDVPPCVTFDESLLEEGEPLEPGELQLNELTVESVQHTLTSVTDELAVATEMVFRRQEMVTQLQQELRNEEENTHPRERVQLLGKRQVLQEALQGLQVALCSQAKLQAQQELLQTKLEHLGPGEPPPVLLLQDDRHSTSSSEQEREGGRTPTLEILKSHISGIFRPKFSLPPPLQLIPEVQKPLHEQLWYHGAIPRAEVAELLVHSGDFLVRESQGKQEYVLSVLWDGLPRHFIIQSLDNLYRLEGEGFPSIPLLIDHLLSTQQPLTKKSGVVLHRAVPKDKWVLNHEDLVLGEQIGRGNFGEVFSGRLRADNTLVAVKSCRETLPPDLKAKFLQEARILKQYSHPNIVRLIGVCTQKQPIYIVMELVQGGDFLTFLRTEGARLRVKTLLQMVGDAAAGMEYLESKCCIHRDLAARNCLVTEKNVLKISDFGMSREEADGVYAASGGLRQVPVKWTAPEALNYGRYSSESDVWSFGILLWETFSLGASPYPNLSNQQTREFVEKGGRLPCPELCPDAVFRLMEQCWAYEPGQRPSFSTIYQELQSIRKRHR
# test: phosphorylation enrichment, bacterial display (enrichment ratio); higher = better substrate or ligand; peptides without Tyr show the background;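 note: 11-residue human phosphosite peptides and single-mutation variants displayed on the E. coli surface, counted by deep sequencing, each peptide's frequency after selection divided by its frequency in the unselected input library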;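 note: frequency after pTyr selection over input frequency; kinase dosed for 20-30% of maximal phosphorylation in three min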
For each of the sequences below, state its phosphorylation enrichment.
// response body must contain only the number

[in] Dear colleague, I am looking for the recorded phosphorylation enrichment of the following sequence: LPKVSYVKAID [GLRA1_Y307]
[out] 0.652

[in] Same read-out for ADKSAYLMGPN [MYH7_Y386_L390P] ?
[out] 0.637

[in] Same read-out for RDGDRYFKGIV [DCX_Y64_N60D] ?
[out] 1.1

[in] Same read-out for ATYRGYDSDNP [MMUT_Y146_H143Y] ?
[out] 0.751

[in] Same read-out for MYVKSYTIHYS [F5_Y2153] ?
[out] 1.17

[in] Same read-out for ASTDFNKRGDF [PDHA1_Y243_Y243N_YF] ?
[out] 0.585

[in] Same read-out for TSYSGYRCHRH [NKAPL_Y94_Y96C] ?
[out] 0.695

[in] Same read-out for GYQPDYGQPAG [SYP_Y278] ?
[out] 0.671

[in] Same read-out for NELTFYCCKKD [CD59_Y87_YF] ?
[out] 1.28

[in] Same read-out for TNLVPYTRIHF [TUBA1A_Y262_P263T] ?
[out] 0.829

[in] Same read-out for FPPTHYIRRMP [SLC4A11_Y820_V824M_YF] ?
[out] 0.981

[in] Same read-out for PPQFSYGLQTQ [SRA1_Y35] ?
[out] 0.604

[in] Same read-out for LDVGEYCVPRG [BEX1_Y43_A40V] ?
[out] 1.21

[in] Same read-out for LNSFIYSLRNR [OR1A1_Y288_P285S] ?
[out] 2.02

[in] Same read-out for LSDGPYSSPYE [EPOR_Y485_N487S] ?
[out] 1.39

[in] Same read-out for IKNSGYISRYL [EIF2AK3_Y585] ?
[out] 0.711

[in] Same read-out for LAAPKYKLNVD [SMARCA2_Y1190_A1188P] ?
[out] 0.961

[in] Same read-out for KKYPDYIQIAR [SGMS2_Y59_M64R] ?
[out] 0.984

[in] Same read-out for RGVAHYILQTF [SLC39A4_Y359_T357A] ?
[out] 1.34

[in] Same read-out for CQAHGYFCQLI [STK11_Y156] ?
[out] 0.836

[in] Same read-out for KRFAFYRDSPR [FOXE3_Y108_E103K] ?
[out] 0.643

[in] Same read-out for QPGTDYKIYLY [FN1_Y1970] ?
[out] 1.55

[in] Same read-out for NPEACYQRLKK [TK2_Y190_T188A] ?
[out] 0.597

[in] Same read-out for FQEKGYNKELR [CHRND_Y38] ?
[out] 0.74

[in] Same read-out for RFLFFYSFLLK [PTEN_Y178_V175L_YF] ?
[out] 1.78

[in] Same read-out for KNKNRYKNVLP [PTPN11_Y279_I282V] ?
[out] 0.593

[in] Same read-out for LERFIYNPEEF [HLA-DPB1_Y59_R61P_YF] ?
[out] 1.75

[in] Same read-out for KGSEGYLAATF [NF1_Y2503_YF] ?
[out] 0.658

[in] Same read-out for FSMGCYEFSLG [HMGCL_Y198_I200F_YF] ?
[out] 1.53

[in] Same read-out for VCHELYNTIRD [PBRM1_Y54] ?
[out] 0.975

[in] Same read-out for DPYHVYIKNRV [KCNE3_Y95] ?
[out] 1.02

[in] Same read-out for "TENAGYFFQVS" ?
[out] 1.08

[in] Same read-out for WRGMPYGGRGD [TGM1_Y312_R307W] ?
[out] 0.514

[in] Same read-out for "TDGIAYEFRVT" ?
[out] 1.51

[in] Same read-out for NGSKGYAYVHF [PABPC5_Y147] ?
[out] 0.904

[in] Same read-out for TDISLYPSGGT [TENM4_Y399_V396I] ?
[out] 0.84

[in] Same read-out for QRIHNYYEHRY [HCN4_Y554_D553N] ?
[out] 1.63

[in] Same read-out for SRGLAYPARPA [LEMD2_Y122] ?
[out] 0.419

[in] Same read-out for NREGVYTVFAP [TGFBI_Y537] ?
[out] 1.11

[in] Same read-out for REHTVYGEPRK [MAGEA4_Y240] ?
[out] 0.851

[in] Same read-out for FSLPAYMDRRD [COX4I1_Y38] ?
[out] 0.815

[in] Same read-out for EWKNNCPRLRE [OPA1_Y582_Y582C] ?
[out] 1.13

[in] Same read-out for SDTGQYQCLVF [AXL_Y115] ?
[out] 1.26

[in] Same read-out for SGFESYGSSSF [RPA2_Y9_YF] ?
[out] 0.601

[in] Same read-out for VIECSYTSADG [DHCR7_Y382] ?
[out] 1.39

[in] Same read-out for SVVVPDEPPEV [TP53_Y220_Y220D] ?
[out] 1.39

[in] Same read-out for YIATQYSLCPR [LBR_Y166_R169C] ?
[out] 0.907

[in] Same read-out for SLDLSYYTTSS [EMD_Y181_P183T] ?
[out] 1.12

[in] Same read-out for LLKAGYQGVLR [TTPA_Y100_H101Q] ?
[out] 0.73

[in] Same read-out for FTNELYMMMRD [FGFR1_Y730_C725Y_YF] ?
[out] 1.24

[in] Same read-out for DYLEKYYKFGS [NNMT_Y24] ?
[out] 0.768

[in] Same read-out for SEPSGYQDNIA [DES_Y363_A360P] ?
[out] 1.05

[in] Same read-out for RYMELYDLNRD [BBS2_Y648] ?
[out] 1.41

[in] Same read-out for APRKVYDTQDD [ZFPL1_Y215_R218Q] ?
[out] 1.09

[in] Same read-out for CTTIHSNFMCN [TP53_Y234_Y234S_YF] ?
[out] 0.832

[in] Same read-out for DVQNEYDSNHC [ZFYVE16_Y36_A35E] ?
[out] 1.07

[in] Same read-out for GGYTCCCDGKK [PROS1_Y266_Y266C] ?
[out] 1

[in] Same read-out for YFRDGYMPRQY [GSS_Y270] ?
[out] 0.74

###

# experimental-system: EPHB1 (UniProt P54762)
# Sequence (P54762 whole entry, looked up): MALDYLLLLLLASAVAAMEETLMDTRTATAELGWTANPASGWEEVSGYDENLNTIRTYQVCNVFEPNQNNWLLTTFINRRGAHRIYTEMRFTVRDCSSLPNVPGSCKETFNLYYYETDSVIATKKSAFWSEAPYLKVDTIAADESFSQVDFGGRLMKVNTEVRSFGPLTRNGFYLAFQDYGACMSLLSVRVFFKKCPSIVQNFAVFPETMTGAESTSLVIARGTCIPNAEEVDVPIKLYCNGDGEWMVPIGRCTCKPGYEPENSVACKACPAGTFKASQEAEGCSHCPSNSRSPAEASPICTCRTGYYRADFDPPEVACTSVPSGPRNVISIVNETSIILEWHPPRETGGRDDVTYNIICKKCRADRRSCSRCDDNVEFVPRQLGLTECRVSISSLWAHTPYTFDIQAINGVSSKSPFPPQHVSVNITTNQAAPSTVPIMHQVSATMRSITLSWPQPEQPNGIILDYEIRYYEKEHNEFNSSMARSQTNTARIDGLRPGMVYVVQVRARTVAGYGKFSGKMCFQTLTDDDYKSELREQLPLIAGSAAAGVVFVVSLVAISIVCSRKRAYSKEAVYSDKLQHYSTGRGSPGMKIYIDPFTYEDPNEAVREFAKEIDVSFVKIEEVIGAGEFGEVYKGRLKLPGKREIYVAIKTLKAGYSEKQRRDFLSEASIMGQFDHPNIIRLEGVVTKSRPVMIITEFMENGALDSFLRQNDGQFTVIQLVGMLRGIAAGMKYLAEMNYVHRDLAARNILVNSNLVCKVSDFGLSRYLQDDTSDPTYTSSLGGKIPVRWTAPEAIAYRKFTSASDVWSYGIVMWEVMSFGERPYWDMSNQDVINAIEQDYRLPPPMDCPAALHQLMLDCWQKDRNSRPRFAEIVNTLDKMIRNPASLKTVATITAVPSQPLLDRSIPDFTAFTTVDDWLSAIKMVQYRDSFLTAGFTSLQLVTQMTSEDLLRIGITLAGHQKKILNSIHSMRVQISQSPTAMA
# test: phosphorylation enrichment, bacterial display (enrichment ratio); higher = better substrate or ligand; peptides without Tyr show the background
For each of the sequences below, state its phosphorylation enrichment.
// response body must contain only the number

[in] Dear colleague, I am looking for the recorded phosphorylation enrichment of the following sequence: RNVYYYSYLLK [PTEN_Y178_Y174N]
[out] 8.15

[in] Same read-out for FFLGKYLQEVL [KLB_Y910_YF] ?
[out] 0.486

[in] Same read-out for EAEPYYCSLRD [NPHS1_Y1139_R1140C] ?
[out] 1.17

[in] Same read-out for PLDGEYLTLQI [TP53_Y327_F328L] ?
[out] 1.46

[in] Same read-out for "AKIDGYIISFR" ?
[out] 0.575

[in] Same read-out for VDHFGYNKDDK [APOB_Y740_T741N] ?
[out] 0.427

[in] Same read-out for VHSGTYQVMVR [MYBPC3_Y1043_T1046M] ?
[out] 2.04

[in] Same read-out for NDHHVYLEGTL [ALDOB_Y223] ?
[out] 0.494

[in] Same read-out for NPEACYQRLKK [TK2_Y190_T188A] ?
[out] 0.417

[in] Same read-out for QNWELYSEGLG [CNKSR1_Y665_R662W] ?
[out] 5.52

[in] Same read-out for PVQDAYQKVVA [HBB_Y131_A129D] ?
[out] 0.445

[in] Same read-out for EFLRNYFTDKA [DSG2_Y775] ?
[out] 0.572

[in] Same read-out for QLLIKYPPEEV [ZZZ3_Y670] ?
[out] 0.898

[in] Same read-out for GESLTYVSTTF [C1orf162_Y120_A121V] ?
[out] 0.532

###

# experimental-system: FGFR3 (UniProt P22607)
# Sequence (P22607 whole entry, looked up): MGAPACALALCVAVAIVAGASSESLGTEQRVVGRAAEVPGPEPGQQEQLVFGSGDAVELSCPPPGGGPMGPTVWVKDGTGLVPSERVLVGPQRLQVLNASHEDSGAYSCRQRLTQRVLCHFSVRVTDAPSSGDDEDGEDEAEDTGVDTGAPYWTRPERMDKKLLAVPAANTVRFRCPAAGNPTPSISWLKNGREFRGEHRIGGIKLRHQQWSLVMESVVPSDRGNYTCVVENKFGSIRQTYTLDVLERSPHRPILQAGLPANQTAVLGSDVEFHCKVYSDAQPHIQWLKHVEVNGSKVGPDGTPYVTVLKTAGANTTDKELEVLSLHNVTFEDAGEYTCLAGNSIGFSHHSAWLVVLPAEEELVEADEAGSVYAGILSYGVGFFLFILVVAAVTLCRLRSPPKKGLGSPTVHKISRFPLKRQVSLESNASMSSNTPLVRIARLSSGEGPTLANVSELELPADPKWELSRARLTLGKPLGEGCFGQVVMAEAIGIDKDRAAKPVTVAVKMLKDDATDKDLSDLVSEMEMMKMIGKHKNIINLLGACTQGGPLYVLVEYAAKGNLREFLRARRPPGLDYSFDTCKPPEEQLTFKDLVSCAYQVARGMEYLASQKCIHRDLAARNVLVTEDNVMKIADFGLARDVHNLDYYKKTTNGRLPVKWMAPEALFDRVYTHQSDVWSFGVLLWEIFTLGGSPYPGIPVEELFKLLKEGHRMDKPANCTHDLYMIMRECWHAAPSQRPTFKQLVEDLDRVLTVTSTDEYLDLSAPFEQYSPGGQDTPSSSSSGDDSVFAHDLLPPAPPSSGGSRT
# test: phosphorylation enrichment, bacterial display (enrichment ratio); higher = better substrate or ligand; peptides without Tyr show the background
readout-name: phosphorylation enrichment
// response body must contain only the number

[in] Dear colleague, I am looking for the recorded phosphorylation enrichment of the following sequence: ENELTYYCCKK [CD59_Y86]
[out] 1.22

[in] Same read-out for RLSELYLRRNR [CFAP410_Y68] ?
[out] 0.875

[in] Same read-out for VLNHAYENLTR [SYNE2_Y3255_D3253H] ?
[out] 0.625

[in] Same read-out for FPKVRYHWLVL [APTX_Y214_A212V_YF] ?
[out] 0.631

[in] Same read-out for RAFRRYLLKQK [SCN2A_Y1919_YF] ?
[out] 0.865

[in] Same read-out for DPKFHYDNTAG [KDR_Y1214] ?
[out] 0.489

[in] Same read-out for VNNLVYENING [FRS2_Y306_K303N] ?
[out] 0.576

[in] Same read-out for PANTVYSTVEI [SLAMF7_Y304] ?
[out] 1.29

[in] Same read-out for FSDPSYVKQME [CDC5L_Y464_YF] ?
[out] 1.36

[in] Same read-out for VVTGPYEKPSL [KIR3DS1_Y221_L220P] ?
[out] 0.491

[in] Same read-out for LDYNEYFRNLN [HPRT1_Y198_D201N] ?
[out] 0.844

[in] Same read-out for SYTDPYAQPSL [KMT2D_Y2378_P2382S] ?
[out] 1.89

[in] Same read-out for LSDGPYSSPYE [EPOR_Y485_N487S] ?
[out] 1.61

[in] Same read-out for QGCSIYKDFFR [PLA2G2D_Y82_YF] ?
[out] 1.28

[in] Same read-out for VHSGTYQVMVR [MYBPC3_Y1043_T1046M] ?
[out] 0.468

[in] Same read-out for DPLLTYWFPPK [LMNA_Y481_R482W] ?
[out] 6.67

[in] Same read-out for RQRTAYFSLDT [CDH1_Y68] ?
[out] 0.504

[in] Same read-out for MDDDQYALLTA [EFCAB6_Y675_T680A] ?
[out] 1.2

[in] Same read-out for EPSVDCCVVKI [CAD_Y735_Y735C] ?
[out] 0.586

[in] Same read-out for DDERGYRRVRS [GIGYF2_Y268] ?
[out] 0.407

[in] Same read-out for TWSRSYRSDRL [CRYBB1_Y131_S129R] ?
[out] 0.494

[in] Same read-out for SDTGQYQCLVF [AXL_Y115] ?
[out] 1.65

[in] Same read-out for LFHENYNAGTY [CFI_Y421_I416L] ?
[out] 0.633

[in] Same read-out for KKHIPYSEHKS [CSNK1G2_Y206_R207S] ?
[out] 1.1

[in] Same read-out for TKDTFYQQPMF [GBA_Y451_K452Q] ?
[out] 0.589

[in] Same read-out for LSDGPYSNPFE [EPOR_Y485_YF] ?
[out] 0.614

[in] Same read-out for SEPSGYQDNIA [DES_Y363_A360P] ?
[out] 0.708

[in] Same read-out for GPKSTYISSAA [GOLGA5_Y62] ?
[out] 0.51

[in] Same read-out for LRVKMYNFLRS [ADGRG7_Y760] ?
[out] 2.58

[in] Same read-out for TFWKKYRTFWK [CCDC70_Y125] ?
[out] 0.555

[in] Same read-out for AGREIYESEKC [TTN_Y4424_D4427E] ?
[out] 0.638

[in] Same read-out for AIYWRYSKFFD [SH3PXD2B_Y45_R43W] ?
[out] 0.804

[in] Same read-out for RAKLFYQEVPA [METTL11B_Y76] ?
[out] 2.39

[in] Same read-out for HLVLNYGVCFC [JAK2_Y613_V617F] ?
[out] 1.77

[in] Same read-out for FDNPIYQKTTE [LDLR_Y828_V827I] ?
[out] 0.49

[in] Same read-out for RASGIYFVPKG [APBB1IP_Y340_YF] ?
[out] 1.71

[in] Same read-out for EYQLPYYNTVP [BMPR1A_Y457_M460T] ?
[out] 5.15

[in] Same read-out for TVLEPYADPFF [ZC3H18_Y367_YF] ?
[out] 0.611

[in] Same read-out for QPGTDYKIYLY [FN1_Y1970] ?
[out] 0.846

[in] Same read-out for LAVPLYKNGVK [CPS1_Y1069] ?
[out] 0.836

[in] Same read-out for ALRHYYKLNII [ETV6_Y402] ?
[out] 1.36

[in] Same read-out for ATHSGYRLNDF [CLDN14_Y233_YF] ?
[out] 0.538

[in] Same read-out for KRGIDYILRHM [FRMD1_Y225] ?
[out] 0.592

[in] Same read-out for TLNTNYHLPPS [MT-ATP8_Y33_M28T] ?
[out] 1.69

[in] Same read-out for GGYTCYCDGKK [PROS1_Y266] ?
[out] 0.728

[in] Same read-out for IENKLYGMSDS [RET_Y1062_P1067S] ?
[out] 0.511

[in] Same read-out for EAIMTYVSSFF [ACTN4_Y260_K255E_YF] ?
[out] 0.675

[in] Same read-out for AASTDYFKRGD [PDHA1_Y242_YF] ?
[out] 0.426

[in] Same read-out for AGTILYHAHLG [ASS1_Y291_D296G] ?
[out] 0.625

[in] Same read-out for CYVYYYSYLLK [PTEN_Y178_R173C] ?
[out] 1.79

[in] Same read-out for QRIHNYYEHRY [HCN4_Y554_D553N] ?
[out] 3.62

[in] Same read-out for DRLAVYIDRVR [LMNA_Y45] ?
[out] 0.745

[in] Same read-out for PLDGEYLTLQI [TP53_Y327_F328L] ?
[out] 2.15

[in] Same read-out for RRIHSYRGFLW [VHL_Y112_H115Y_YF] ?
[out] 0.378

[in] Same read-out for GEDEPYSEPFA [APBA1_Y183_YF] ?
[out] 0.68

[in] Same read-out for STEAIYRRFSK [SH3PXD2B_Y42_YF] ?
[out] 0.408

[in] Same read-out for TLSGTYQFIIA [FOXL2_Y81_I80T_YF] ?
[out] 1.9
